Test system: panel of cancer cell lines
Assay: Cell viability (CellTiter-Glo) dose-response across cancer cell line panel;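 further: after 72 h compound incubation with CellTiter-Glo ATP readout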
Type: cell-based, human
Details: Homo sapiens, JHUEM-3
List of EC50 values.

COCc1ccccc1NCc1ccc([C@H]2[C@@H](O)CCCc3cncn32)c(-c2ccccc2Cl)c1 [CSN5i-2] : > 30 µM

Note: attention shifts to another entry.
// recorded EC50 for NS(=O)(=O)OC[C@@H]1C[C@@H](n2ccc3c(N[C@H]4CCc5ccccc54)ncnc32)C[C@@H]1O [MLN4924] : > 30 µM

---

System: panel of cancer cell lines
Experiment: Cell viability (CellTiter-Glo) dose-response across cancer cell line panel;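 further: after 72 h compound incubation with CellTiter-Glo ATP readout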
Assay type: cell-based, human
Conditions: Homo sapiens, OCI-M1, OCI-M1
QUANTITY KIND: EC50 (nM)
Express the result in nM but write the number alone.

NS(=O)(=O)OC[C@@H]1C[C@@H](n2ccc3c(N[C@H]4CCc5ccccc54)ncnc32)C[C@@H]1O : 34.3

Note: attention shifts to another entry.
// recorded EC50 for `CC(C)C[C@H](NC(=O)[C@H](Cc1ccccc1)NC(=O)c1cnccn1)B(O)O` : 2.41
